# assay comment: gradient 5% acetonitrile 3 min, to 50% in 2 min, to 85% in 15 min, held 3 min, 100 µL/min
# measurement parameters: column: Zorbax Extend-C18 2.1 x 50 mm; eluents: water / acetonitrile, 0.1% formic acid
measure name: RP-LC retention time (s)

Example entries and their recorded answers appear below.
CCOCCCNC(=O)C(Cc1c[nH]c2ccccc12)NC(=O)C1CCC(C)CC1 (stereo not drawn); 839
CCc1ccc(NC(=O)Cc2nnc3cc(-c4nc(CC)no4)ccn23)cc1; 826
CC(C)n1cnc(S(=O)(=O)N2CCC(C(=O)Nc3ccc4c(c3)OCCO4)CC2)c1; 721
Cc1ccccc1S(=O)(=O)Nc1ccc(C2(C(=O)NCC3CCCO3)CC2)cc1 (stereo not drawn); 797
O=C(c1cccc(F)c1)N1CCC(C(=O)N2CCN(Cc3ccc4c(c3)OCO4)CC2)CC1; 610

P: CCOc1ccc(NC(=O)C2CCCN2S(=O)(=O)c2cc3c(cc2Cl)NC(=O)CO3)cc1 (stereo not drawn)
Q: CCC1CN(S(=O)(=O)c2cc(-c3cc(C)no3)cs2)c2cc(Cl)ccc2O1 (stereo not drawn)
Query: # query: argmin of RP-LC retention time over P and Q Refer to your chosen entry by its label in the reply.
Result: P

a: O=C(CCc1c(-c2ccc(Cl)cc2)nc2ccccn12)NC1CCCCCC1
b: O=C(CCc1conc1-c1ccc(F)cc1)N1CCN(c2ccc(Cl)cc2)CC1
Query: Which is greater in RP-LC retention time, the first item a or the second item b ? Refer to your chosen entry by its label in the reply.
Result: b

A: COc1cccc(C(=O)NCCOc2cccc(C(F)(F)F)c2)c1OC
B: Cc1cc(-c2nnc(SCC(N)=O)o2)c(C)o1
Query: Which is greater in RP-LC retention time, the first item A or the second item B ? Refer to your chosen entry by its label in the reply.
Result: A
(A: 972 s, B: 625 s)

###

# assay comment: gradient 5% acetonitrile 3 min, to 50% in 2 min, to 85% in 15 min, held 3 min, 100 µL/min
# measurement parameters: column: Zorbax Extend-C18 2.1 x 50 mm; eluents: water / acetonitrile, 0.1% formic acid
measure name: RP-LC retention time (s)

CCOc1ccccc1NC(=O)N1CCC(c2cnn(-c3ccccc3)c2)CC1; 1040
Cc1ccc(Cl)c(NS(=O)(=O)c2cc(-c3[nH]ncc3C(=O)N3CCCC3)oc2C)c1; 739
CC(=O)Nc1ccc(C)cc1S(=O)(=O)N1CCc2c(c(-c3nnc(-c4ccccc4)o3)nn2C)C1; 815
Cc1ccc(OCC(=O)N(Cc2ccc(N(C)C)cc2)C2CCS(=O)(=O)C2)cc1C (stereo unspecified); 774
COc1cc(-n2c(C)nc3cc(C(=O)NCC4CCCO4)ccc32)cc(OC)c1OC (stereo unspecified); 631
O=C(NCc1ccco1)c1ccc2c(c1)nnn2Cc1ccc(F)cc1; 808

###

# assay comment: gradient 5% acetonitrile 3 min, to 50% in 2 min, to 85% in 15 min, held 3 min, 100 µL/min
# measurement parameters: column: Zorbax Extend-C18 2.1 x 50 mm; eluents: water / acetonitrile, 0.1% formic acid
measure name: RP-LC retention time (s)

Example entries and their recorded answers appear below.
O=C(Nc1ccc(Cl)cc1)C(=O)c1c[nH]c2ccccc12; 1030
CNC(=O)[C@@H]1C[C@H](Oc2ccccc2)CN1C(=O)CCCc1c[nH]c2ccccc12; 800
O=C(NCc1csc(-c2ccccc2)n1)C1CCN(S(=O)(=O)c2ccc(F)c(Cl)c2)CC1; 987
O=C(c1ccoc1)N1CC(Oc2cccc(-c3nc(-c4ccccc4)no3)c2)C1; 1070
COc1ccc(-n2ccnc2SCC(=O)NCc2ccc3c(c2)OCO3)c(OC)c1; 630

P: Cc1oc(C2CCN(S(=O)(=O)c3cc(F)ccc3F)CC2)nc1C(=O)N1CCCC1
Q: COC(=O)Nc1ccc(CC(=O)NCC(F)(F)F)cc1
Query: # query: argmin of RP-LC retention time over P and Q Refer to your chosen entry by its label in the reply.
Result: Q
(Q: 639 s, P: 926 s)

###

# assay comment: gradient 5% acetonitrile 3 min, to 50% in 2 min, to 85% in 15 min, held 3 min, 100 µL/min
# measurement parameters: column: Zorbax Extend-C18 2.1 x 50 mm; eluents: water / acetonitrile, 0.1% formic acid
measure name: RP-LC retention time (s)

Example entries and their recorded answers appear below.
CC(C)Cn1c(=O)c2ccccc2n(Cc2nc(-c3ccccc3)no2)c1=O; 1040
CCOc1ccc(OCCNC(=O)NC2CCCCC2)cc1; 800
CCOc1ccc(-c2[nH]ncc2CNS(=O)(=O)Cc2ccc(C)cc2)cc1; 853
Cc1nnc(-c2ccc3ccn(CC(=O)N4CCN(c5ccccc5)CC4)c3c2)o1; 801
CCOCCCNC(=O)N1CCC(c2cc(N)on2)CC1; 601
O=C1CC[C@@]2(O)C3Cc4ccc(O)c5c4C2(CCN3CC2CC2)[C@H]1O5 (stereo partly specified); 599

1: O=C(NC1CCN(c2cc(-c3ccc(F)cc3)[nH]n2)C1)c1ccncc1 (stereo unspecified)
2: O=C(Nc1ccc(F)c(F)c1)c1cccn1Cc1noc(-c2ccccc2)n1
Query: Which is greater in RP-LC retention time, the first item 1 or the second item 2 ? Refer to your chosen entry by its label in the reply.
Result: 2
(2: 1100 s, 1: 611 s)

###

# assay comment: gradient 5% acetonitrile 3 min, to 50% in 2 min, to 85% in 15 min, held 3 min, 100 µL/min
# measurement parameters: column: Zorbax Extend-C18 2.1 x 50 mm; eluents: water / acetonitrile, 0.1% formic acid
measure name: RP-LC retention time (s)

a: Cc1cccc(Oc2nccnc2Sc2ccccc2C(=O)N2CCN(c3ccccn3)CC2)c1
b: Cc1cc(C#N)cc(C)c1Oc1nc(Nc2ccc(C#N)cc2)nc(N)c1Br
Query: # query: argmin of RP-LC retention time over a and b Refer to your chosen entry by its label in the reply.
Result: a

###

# assay comment: gradient 5% acetonitrile 3 min, to 50% in 2 min, to 85% in 15 min, held 3 min, 100 µL/min
# measurement parameters: column: Zorbax Extend-C18 2.1 x 50 mm; eluents: water / acetonitrile, 0.1% formic acid
measure name: RP-LC retention time (s)

CCOC(=O)Nc1ccc2c(c1)N(CCC(C)C)C(=O)C(C)(C)CO2; 1070
Cc1cc(C)n(-c2ccc(SCC(=O)N3CCCc4ccccc43)nn2)n1; 914
CCN1CCN(S(=O)(=O)c2c(C)nn(-c3ccc(-c4ccc(C)cc4)nn3)c2C)CC1; 708
CCc1nccn1Cc1nc(-c2ccc3c(c2)OCO3)no1; 621
CCCn1cc(CCNS(=O)(=O)c2ccccc2C)c2cccnc21; 830
CCC(=O)N1CCCCCCN(C)C(=O)[C@@H]2CCC[C@@H]21; 726
COc1cccc(-n2c(=O)c(C(=O)Nc3ccccc3F)c(O)c3cccnc32)c1; 1200
CCN1CCCn2cc(S(=O)(=O)Nc3ccc(OC)cc3)cc2C1=O; 680
O=C(NCc1ccc2c(c1)OCO2)c1ccc2c(c1)N(Cc1ccccc1)C(=O)CO2; 857
Cc1cc2nc(C(F)(F)F)c(=O)n(C(C)C(=O)NCCCN3CCN(C)CC3)c2cc1C (stereo not drawn); 652
CC(=C/c1ccccc1)/C=C1/NC(=S)NC1=O; 880
Cc1ccc(NC(=O)Cn2c(=O)cc(-c3nc(C(C)C)no3)c3ccccc32)c(Cl)c1; 1110
CCOC(=O)CC1(NC(=O)N2CCN(c3nc4ccccc4n3CC)CC2)CCCCC1; 703
Cc1cc(C)nc(SCC(=O)Nc2nc(-c3ccccc3)c(-c3ccccc3)o2)n1; 1050
Cc1noc(-c2ccc(=O)n(C(C)C)n2)n1; 715
O=C(O)c1cnc(N2CCOCC2)nc1-c1ccc(Cl)cc1; 823
Cc1nn(-c2ccccc2)c(C)c1S(=O)(=O)N1CCC(C(=O)Nc2ccc(F)cc2Cl)CC1; 1000
CN1CCN(C(=O)c2nn(-c3ccc(Cl)cc3)c3c(=O)n(C)cnc23)CC1; 611
COc1ccc(C(=O)N2CCc3cc(-c4csc(C)n4)ccc32)c(OC)c1; 965
COc1ccc(-c2c(C)noc2NC(C)=O)cc1S(=O)(=O)Nc1cc(F)ccc1F; 748
CC1CCN(CCNS(=O)(=O)c2ccccc2-c2nc(-c3ccccc3)no2)CC1; 735
Cn1ccc2cc(CCC(=O)N3CCN(c4ccc(F)cc4)CC3)ccc21; 951
CCOc1ccccc1-c1nc(-c2cn(-c3cccc(F)c3)nn2)no1; 936
O=C(Nc1cccs1)Nc1ccccc1NC(=O)c1ccccc1C(F)(F)F; 805
Cc1cc(C)c(C(=O)N2CCC(CC(=O)NCc3cccc(Br)c3)CC2)[nH]1; 820
Cn1c(CCCC(=O)O)nc2cc(N(CCCl)CCCl)ccc21; 747
CCn1c(=O)c2c(C(=O)N3CCN(c4ccccn4)CC3)cc(=O)n(CC)c2n(C)c1=O; 617
O=C(NCc1csc(C2CCCN(C(=O)c3ccc(F)cc3F)C2)n1)C1CC1 (stereo not drawn); 717
CCOC(=O)c1c(C)[nH]c(C(=O)N2CCC(CC(=O)N3CCCC3)CC2)c1C; 694
CCc1ccc(OCC(=O)Nc2nnc(SCc3nnc(-c4ccccc4)o3)s2)cc1; 1010
O=c1n(Cc2cc(F)cc(F)c2)nc2ccc(S(=O)(=O)N3CCCCC3)cn12; 960
Cc1ccc(N2CCC(NC(=O)c3cccc(F)c3)C2=O)cc1C (stereo not drawn); 891
CCOC(=O)c1cc2n(n1)CC(C)(C(=O)NC1CCCC1)N(c1cccc(F)c1)C2=O (stereo not drawn); 862
